Hello, the source for this data is ChEMBL document CHEMBL1961873, in case you need it.

# Test Target: Tyrosine-protein kinase TXK (Homo sapiens);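 also: value given is the mean percent inhibition of TXK kinase activity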
# Settings: at 1 µM
Everything with inhibition lower than 5% is criterion not met; everything else, including exactly 5%, is criterion met.

Cc1ccc(C(=O)NC2CC2)cc1-c1ccc2[nH]ncc2c1 | criterion not met

Prompt: Could you verify whether the entry Cc1ccc(NC(=O)CC2CC2)cc1-c1ccc(C(=O)NCC2CC2)cc1 shows inhibition of no less than 5%?
Completion: criterion met

Prompt: Could you verify whether the entry CCCN1CCCC(c2ccc(Nc3nc(Nc4cc(F)ccc4C(N)=O)c4cc[nH]c4n3)c(OC)c2)C1 (stereo unspecified) shows inhibition of no less than 5%?
Completion: criterion met

Prompt: Could you verify whether the entry COc1cc2ncnc(Nc3ccc4c(cnn4Cc4ccccc4)c3)c2cc1OC shows inhibition of no less than 5%?
Completion: criterion not met
